This collection of values is drawn from ChEMBL document CHEMBL3991601.

Molecular target: UniProt P05771
Sequence (P05771 whole entry): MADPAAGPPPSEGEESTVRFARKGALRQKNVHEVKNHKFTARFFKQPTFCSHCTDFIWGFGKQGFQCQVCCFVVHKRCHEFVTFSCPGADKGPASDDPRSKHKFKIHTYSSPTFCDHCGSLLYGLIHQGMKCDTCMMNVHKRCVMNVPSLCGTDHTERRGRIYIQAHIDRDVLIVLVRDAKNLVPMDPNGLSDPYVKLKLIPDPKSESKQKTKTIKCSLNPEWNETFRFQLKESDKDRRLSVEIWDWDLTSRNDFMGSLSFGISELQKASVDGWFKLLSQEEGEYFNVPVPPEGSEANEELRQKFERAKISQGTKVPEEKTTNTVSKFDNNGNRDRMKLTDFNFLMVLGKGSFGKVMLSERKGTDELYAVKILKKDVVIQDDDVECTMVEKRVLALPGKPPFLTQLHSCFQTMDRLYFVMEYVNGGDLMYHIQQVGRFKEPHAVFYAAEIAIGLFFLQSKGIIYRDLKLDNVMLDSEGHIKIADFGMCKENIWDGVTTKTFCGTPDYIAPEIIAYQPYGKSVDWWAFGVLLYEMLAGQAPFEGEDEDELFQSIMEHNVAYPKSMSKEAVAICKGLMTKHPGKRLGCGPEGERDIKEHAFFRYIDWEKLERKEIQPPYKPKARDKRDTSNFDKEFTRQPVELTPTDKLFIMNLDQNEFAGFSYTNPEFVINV
Active and inactive are the calls of the source.
Tick one outcome: True (active), False (inactive)

NC(=O)c1ccc(N(C(N)=O)c2c(F)cccc2F)nc1-c1ccc(F)cc1F [VX-702] = False

Answer briefly: the call reported for CC(C)CC(=O)Nc1[nH]nc2c1CN(C(=O)C1CCN(C)CC1)C2(C)C [PHA-793887] in this assay.
False

Answer briefly: the call reported for Cc1cc(-c2cc(OC(=O)c3ccccc3)ccc2Cl)cc2nnc(Nc3ccc(OCCN4CCCC4)cc3)nc12 [TG100-801] in this assay.
False

Answer briefly: the call reported for O=C(O)c1ccc2c(c1)nc(Nc1cccc(Cl)c1)c1ccncc12 [SILMITASERTIB] in this assay.
False

Answer briefly: the call reported for Cc1c(NC(=O)OC[C@@H]2COCCN2)cn2ncnc(Nc3ccc4c(cnn4Cc4cccc(F)c4)c3)c12 [AC-480] in this assay.
False

Answer briefly: the call reported for CNC(=O)c1ccc(Nc2ncc(C(F)(F)F)c(NCc3nccnc3N(C)S(C)(=O)=O)n2)cc1 [DEFACTINIB] in this assay.
False

Answer briefly: the call reported for COc1cc2c(Oc3ccc4[nH]c(C)cc4c3F)ncnc2cc1OCCCN1CCCC1 [CEDIRANIB] in this assay.
False

---

The following are reported Kd results, target or system Probable ATP-dependent RNA helicase DDX6 (Homo sapiens, UniProt P26196). Further: in the data inactive means no Kd found up to 30 µM.
Activity calls are given as the source filed them.

Consider the reported Kd for these compounds:
CNC(=O)c1cccc(-c2ccc3c(N4CCOC[C@@H]4C)nc(N4CCOC[C@@H]4C)nc3n2)c1 [VISTUSERTIB] = > 30 µM (inactive)
O=C(Nc1ccc(OC(F)(F)F)cc1)c1sccc1NCc1ccnc2ccccc12 [OSI-930] = > 30 µM (inactive)
CNC(=O)c1ccc(Nc2ncc(C(F)(F)F)c(NCc3nccnc3N(C)S(C)(=O)=O)n2)cc1 [DEFACTINIB] = > 30 µM (inactive)

Lab note: next compound to report on.
Query (compound): C#Cc1cccc(Nc2ncnc3cc4c(cc23)OCCOCCOCCO4)c1 [ICOTINIB] ; field requested: Kd
> 30 µM (inactive)

---

Target: UniProtKB Q15746
Sequence (Q15746 whole entry): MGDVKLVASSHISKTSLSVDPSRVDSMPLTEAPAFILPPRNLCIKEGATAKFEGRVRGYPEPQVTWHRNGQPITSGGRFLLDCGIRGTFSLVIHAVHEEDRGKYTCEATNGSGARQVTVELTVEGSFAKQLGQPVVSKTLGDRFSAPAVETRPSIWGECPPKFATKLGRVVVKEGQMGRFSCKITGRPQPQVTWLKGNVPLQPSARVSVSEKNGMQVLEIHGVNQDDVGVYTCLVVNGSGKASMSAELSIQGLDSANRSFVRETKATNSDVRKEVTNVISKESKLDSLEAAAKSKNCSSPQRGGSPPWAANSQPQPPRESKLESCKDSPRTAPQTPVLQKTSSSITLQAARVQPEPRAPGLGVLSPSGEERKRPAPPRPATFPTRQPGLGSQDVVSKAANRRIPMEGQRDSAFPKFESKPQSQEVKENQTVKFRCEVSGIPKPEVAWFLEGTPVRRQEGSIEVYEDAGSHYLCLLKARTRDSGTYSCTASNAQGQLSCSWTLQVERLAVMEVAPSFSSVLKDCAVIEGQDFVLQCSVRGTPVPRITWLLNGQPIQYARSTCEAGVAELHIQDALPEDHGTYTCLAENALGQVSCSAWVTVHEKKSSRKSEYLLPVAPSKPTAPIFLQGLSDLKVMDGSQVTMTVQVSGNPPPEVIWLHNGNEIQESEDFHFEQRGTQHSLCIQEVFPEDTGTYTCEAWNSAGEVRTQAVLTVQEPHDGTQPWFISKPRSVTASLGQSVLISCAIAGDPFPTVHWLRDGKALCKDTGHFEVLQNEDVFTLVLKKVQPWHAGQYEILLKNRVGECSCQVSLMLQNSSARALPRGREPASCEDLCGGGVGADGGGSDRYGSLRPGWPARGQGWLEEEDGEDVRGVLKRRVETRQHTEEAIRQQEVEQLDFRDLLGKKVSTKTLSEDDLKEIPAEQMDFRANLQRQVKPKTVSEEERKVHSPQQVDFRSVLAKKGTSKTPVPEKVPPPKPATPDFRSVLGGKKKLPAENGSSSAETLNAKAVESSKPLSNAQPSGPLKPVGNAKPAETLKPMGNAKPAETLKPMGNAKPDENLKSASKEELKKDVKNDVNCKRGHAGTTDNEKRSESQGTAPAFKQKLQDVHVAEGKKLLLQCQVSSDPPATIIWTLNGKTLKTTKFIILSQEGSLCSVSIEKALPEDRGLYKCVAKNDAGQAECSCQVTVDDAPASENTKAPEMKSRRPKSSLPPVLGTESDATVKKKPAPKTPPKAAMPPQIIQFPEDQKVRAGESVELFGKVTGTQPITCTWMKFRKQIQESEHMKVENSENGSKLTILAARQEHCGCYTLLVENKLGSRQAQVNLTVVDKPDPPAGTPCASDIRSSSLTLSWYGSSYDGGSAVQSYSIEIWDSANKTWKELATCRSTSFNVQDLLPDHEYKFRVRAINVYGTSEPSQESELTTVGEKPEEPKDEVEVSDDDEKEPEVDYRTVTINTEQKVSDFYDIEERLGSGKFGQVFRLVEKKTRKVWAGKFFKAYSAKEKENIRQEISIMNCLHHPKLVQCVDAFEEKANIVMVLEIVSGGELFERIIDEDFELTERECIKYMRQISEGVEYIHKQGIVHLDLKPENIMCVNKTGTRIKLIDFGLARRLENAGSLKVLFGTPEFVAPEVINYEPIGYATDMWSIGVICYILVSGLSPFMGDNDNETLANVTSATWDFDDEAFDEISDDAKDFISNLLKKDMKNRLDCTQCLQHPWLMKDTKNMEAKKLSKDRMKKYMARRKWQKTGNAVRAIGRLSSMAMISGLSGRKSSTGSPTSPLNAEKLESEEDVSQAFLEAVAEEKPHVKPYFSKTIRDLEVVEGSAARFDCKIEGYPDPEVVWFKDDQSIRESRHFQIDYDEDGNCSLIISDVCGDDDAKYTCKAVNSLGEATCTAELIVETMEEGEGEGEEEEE
The source made the active and inactive calls.
Tick one outcome: y for active, n for inactive

COc1ccc2c(OCc3nnc4ccc(-c5ccccc5)nn34)ccnc2c1 [AMG-208] = n
O=C(Nc1ccc(OC(F)(F)F)cc1)c1sccc1NCc1ccnc2ccccc12 [OSI-930] = n
CCN1CCN(Cc2ccc(Nc3ncc(F)c(-c4cc(F)c5nc(C)n(C(C)C)c5c4)n3)nc2)CC1 [ABEMACICLIB] = n
Cc1cc(-c2cc(OC(=O)c3ccccc3)ccc2Cl)cc2nnc(Nc3ccc(OCCN4CCCC4)cc3)nc12 [TG100-801] = n
c1cc(OCCN2CCCCC2)cc(-c2n[nH]c3ccc(-c4nc[nH]n4)cc23)c1 [CC-401] = n

Answer briefly: the call reported for COc1cc2nccc(Oc3ccc(NC(=O)C4(C(=O)Nc5ccc(F)cc5)CC4)cc3)c2cc1OC [CABOZANTINIB] in this assay.
n

Answer briefly: the call reported for Cc1cc(C(=O)Nc2cc(Oc3ccc4nc(NC(=O)C5CC5)cn4n3)ccc2C)n(C)n1 [TAK-593] in this assay.
n

Answer briefly: the call reported for O=C(NOC[C@H](O)CO)c1ccc(F)c(F)c1Nc1ccc(I)cc1F [MIRDAMETINIB] in this assay.
n

Answer briefly: the call reported for COc1cc2ncnc(Nc3ccc(O)cc3)c2cc1OC [WHI-P131] in this assay.
n

Answer briefly: the call reported for Cc1ccc(C(=O)Nc2ccc(Oc3cc4cnn(C)c4cc3-c3cn[nH]c3)c(F)c2)c(=O)n1-c1ccc(F)cc1 [MERESTINIB] in this assay.
n

Answer briefly: the call reported for COc1cc(Nc2ncc(F)c(Nc3ccc4c(n3)N(COP(=O)(O)O)C(=O)C(C)(C)O4)n2)cc(OC)c1OC [FOSTAMATINIB] in this assay.
n

Answer briefly: the call reported for O=C(NC[C@H](O)CO)c1ccncc1Nc1ccc(I)cc1F [PIMASERTIB] in this assay.
n

Answer briefly: the call reported for COc1cc2ncnc3c2cc1OCCCCCN(C)Cc1ccc(Br)cc1N3 [JNJ-26483327] in this assay.
n

Answer briefly: the call reported for CC(C)(O)CC(=O)NCCn1ccc2ncnc(Nc3ccc(Oc4cccc(C(F)(F)F)c4)c(Cl)c3)c21 [TAK-285] in this assay.
n

Answer briefly: the call reported for O=c1[nH]c([C@@H]2CCCN2)nc2c1oc1ccc(Cl)cc12 in this assay.
n

Answer briefly: the call reported for CNC(=O)c1cc(COc2nnc(Nc3ccc(Cl)cc3)c3ccoc23)ccn1 [TELATINIB] in this assay.
n

Answer briefly: the call reported for COc1cc2ncnc(Nc3ccc(F)c(Cl)c3)c2cc1NC(=O)/C=C/CN1CCCCC1 [DACOMITINIB ANHYDROUS] in this assay.
n

Answer briefly: the call reported for COCCN1CCN(Cc2ccc(-c3n[nH]c4c3C(=O)c3c(NC(=O)NN5CCOCC5)cccc3-4)cc2)CC1 [RGB-286638] in this assay.
n

Answer briefly: the call reported for CN1CCN(c2nc(C3=C(c4c[nH]c5ccccc45)C(=O)NC3=O)c3ccccc3n2)CC1 [SOTRASTAURIN] in this assay.
n

---

Target: Activin receptor type-1-like (Homo sapiens); further: in the data inactive means no Kd found up to 30 µM
Sequence (P37023 whole entry): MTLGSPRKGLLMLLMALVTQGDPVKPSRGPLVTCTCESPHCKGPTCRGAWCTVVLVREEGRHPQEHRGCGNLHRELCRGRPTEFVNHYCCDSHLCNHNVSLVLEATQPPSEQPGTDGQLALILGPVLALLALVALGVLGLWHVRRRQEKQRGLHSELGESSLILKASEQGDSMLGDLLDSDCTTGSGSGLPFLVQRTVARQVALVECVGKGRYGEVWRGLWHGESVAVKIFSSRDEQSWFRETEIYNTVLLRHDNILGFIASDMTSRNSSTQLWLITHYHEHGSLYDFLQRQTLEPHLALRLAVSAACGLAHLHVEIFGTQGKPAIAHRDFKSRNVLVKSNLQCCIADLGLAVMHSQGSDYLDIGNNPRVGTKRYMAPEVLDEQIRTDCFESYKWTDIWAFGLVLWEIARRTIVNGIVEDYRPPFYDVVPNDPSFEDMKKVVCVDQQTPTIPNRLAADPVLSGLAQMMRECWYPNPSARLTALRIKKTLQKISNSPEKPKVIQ
Active and inactive are the calls of the source.
compounds and their reported Kd

Consider the reported Kd for these compounds:
C[C@]1(O)C[C@@H](c2nc(-c3ccc4ccc(-c5ccccc5)nc4c3)c3c(N)nccn32)C1 [LINSITINIB] = > 30 µM (inactive)
O=C(NOC[C@H](O)CO)c1ccc(F)c(F)c1Nc1ccc(I)cc1F [MIRDAMETINIB] = > 30 µM (inactive)
Cc1c(NC(=O)OC[C@@H]2COCCN2)cn2ncnc(Nc3ccc4c(cnn4Cc4cccc(F)c4)c3)c12 [AC-480] = > 30 µM (inactive)
COc1ccc2c(OCc3nnc4ccc(-c5ccccc5)nn34)ccnc2c1 [AMG-208] = > 30 µM (inactive)

Query (compound): CNC(=O)c1cccc(-c2ccc3c(N4CCOC[C@@H]4C)nc(N4CCOC[C@@H]4C)nc3n2)c1 [VISTUSERTIB] ; field requested: Kd
> 30 µM (inactive)

---

Target: UniProtKB O76039
Sequence (O76039 whole entry): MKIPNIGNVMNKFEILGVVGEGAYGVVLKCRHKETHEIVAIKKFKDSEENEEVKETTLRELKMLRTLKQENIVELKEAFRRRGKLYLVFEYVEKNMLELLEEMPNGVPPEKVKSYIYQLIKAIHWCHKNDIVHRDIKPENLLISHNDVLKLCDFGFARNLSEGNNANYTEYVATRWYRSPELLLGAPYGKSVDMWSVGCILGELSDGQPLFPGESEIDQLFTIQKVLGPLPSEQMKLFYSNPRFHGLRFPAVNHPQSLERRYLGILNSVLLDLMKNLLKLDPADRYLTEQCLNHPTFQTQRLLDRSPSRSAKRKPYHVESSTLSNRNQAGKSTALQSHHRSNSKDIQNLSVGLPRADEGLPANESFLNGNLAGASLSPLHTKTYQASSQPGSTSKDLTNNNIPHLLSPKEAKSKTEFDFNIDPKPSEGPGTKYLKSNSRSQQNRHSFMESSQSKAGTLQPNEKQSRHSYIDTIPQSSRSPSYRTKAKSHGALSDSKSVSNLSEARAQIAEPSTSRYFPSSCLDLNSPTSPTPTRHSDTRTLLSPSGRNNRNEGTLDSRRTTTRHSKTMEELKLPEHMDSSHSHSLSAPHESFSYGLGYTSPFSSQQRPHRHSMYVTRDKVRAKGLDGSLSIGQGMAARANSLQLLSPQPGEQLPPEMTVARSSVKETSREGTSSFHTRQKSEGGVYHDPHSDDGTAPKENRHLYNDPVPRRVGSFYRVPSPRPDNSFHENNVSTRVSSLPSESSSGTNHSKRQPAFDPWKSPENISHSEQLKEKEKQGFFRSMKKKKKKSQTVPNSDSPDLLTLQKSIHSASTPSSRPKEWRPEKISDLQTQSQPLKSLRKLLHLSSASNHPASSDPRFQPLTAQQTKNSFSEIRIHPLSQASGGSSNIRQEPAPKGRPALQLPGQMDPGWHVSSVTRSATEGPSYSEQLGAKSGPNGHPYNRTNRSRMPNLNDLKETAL
Activity calls are given as the source filed them.
Readout label: Kd

Consider the reported Kd for these compounds:
C#Cc1cccc(Nc2ncnc3cc4c(cc23)OCCOCCOCCO4)c1 = > 30 µM (inactive)
CCc1nc(C(N)=O)c(Nc2ccc(N3CCC(N4CCN(C)CC4)CC3)c(OC)c2)nc1NC1CCOCC1 = > 30 µM (inactive)

Lab note: next compound to report on.
State its Kd on UniProtKB O76039: C=CCn1c(=O)c2cnc(Nc3ccc(N4CCN(C)CC4)cc3)nc2n1-c1cccc(C(C)(C)O)n1
> 30 µM (inactive)

---

Molecular target: Inhibitor of nuclear factor kappa-B kinase subunit epsilon (Homo sapiens); further: in the data inactive means no Kd found up to 30 µM
Sequence (Q14164 whole entry): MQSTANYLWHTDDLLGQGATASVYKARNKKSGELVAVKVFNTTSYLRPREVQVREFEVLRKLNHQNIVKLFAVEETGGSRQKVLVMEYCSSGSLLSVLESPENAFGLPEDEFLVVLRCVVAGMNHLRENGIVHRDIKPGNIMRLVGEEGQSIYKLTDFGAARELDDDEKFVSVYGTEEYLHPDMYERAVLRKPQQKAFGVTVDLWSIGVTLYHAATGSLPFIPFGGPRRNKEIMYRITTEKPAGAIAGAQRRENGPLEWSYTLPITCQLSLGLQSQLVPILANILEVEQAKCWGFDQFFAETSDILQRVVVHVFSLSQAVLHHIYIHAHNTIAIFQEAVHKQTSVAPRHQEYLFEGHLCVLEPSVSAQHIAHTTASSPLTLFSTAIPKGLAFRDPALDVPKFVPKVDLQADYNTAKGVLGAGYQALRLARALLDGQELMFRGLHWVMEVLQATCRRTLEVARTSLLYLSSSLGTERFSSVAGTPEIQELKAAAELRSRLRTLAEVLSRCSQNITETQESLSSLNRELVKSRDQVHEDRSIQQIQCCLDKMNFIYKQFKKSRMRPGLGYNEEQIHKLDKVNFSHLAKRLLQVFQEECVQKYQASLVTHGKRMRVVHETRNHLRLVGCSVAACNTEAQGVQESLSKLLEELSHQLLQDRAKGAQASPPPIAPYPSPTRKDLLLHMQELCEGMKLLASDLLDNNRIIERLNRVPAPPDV
The source made the active and inactive calls.
Tick one outcome: t = active, f = inactive

As a guide, the following entries are already answered.
COc1cc(Nc2ncc(F)c(Nc3ccc4c(n3)N(COP(=O)(O)O)C(=O)C(C)(C)O4)n2)cc(OC)c1OC = t
C[C@]1(O)C[C@@H](c2nc(-c3ccc4ccc(-c5ccccc5)nc4c3)c3c(N)nccn32)C1 = f
CNC(=O)c1cc(COc2nnc(Nc3ccc(Cl)cc3)c3ccoc23)ccn1 = f
COCCN1CCN(Cc2ccc(-c3n[nH]c4c3C(=O)c3c(NC(=O)NN5CCOCC5)cccc3-4)cc2)CC1 = t
N#CCNC(=O)c1ccc(-c2ccnc(Nc3ccc(N4CCOCC4)cc3)n2)cc1 = t
NC(=O)c1ccc(N(C(N)=O)c2c(F)cccc2F)nc1-c1ccc(F)cc1F = f
O=C(Nc1ccc(OC(F)(F)F)cc1)c1sccc1NCc1ccnc2ccccc12 = f
Cn1c(=O)c(F)c(Nc2ccc(I)cc2F)c2c(=O)n(C[C@@H](O)CO)cnc21 = f

Below: the item to evaluate.
Answer briefly: the call reported for C#Cc1cccc(Nc2ncnc3cc4c(cc23)OCCOCCOCCO4)c1 in this assay.
f

---

compounds and their reported Kd
Molecular target: Electron transfer flavoprotein subunit beta (Homo sapiens); further: in the data inactive means no Kd found up to 30 µM
Sequence (P38117 whole entry): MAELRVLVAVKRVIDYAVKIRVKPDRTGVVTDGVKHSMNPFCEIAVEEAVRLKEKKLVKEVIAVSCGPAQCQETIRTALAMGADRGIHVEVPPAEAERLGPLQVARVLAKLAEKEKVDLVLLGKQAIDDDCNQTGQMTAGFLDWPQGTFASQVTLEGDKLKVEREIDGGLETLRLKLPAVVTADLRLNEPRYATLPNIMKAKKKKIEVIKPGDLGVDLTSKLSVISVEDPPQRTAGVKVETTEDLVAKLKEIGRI
The source made the active and inactive calls.

Consider the reported Kd for these compounds:
Cn1cnc2c(F)c(Nc3ccc(Br)cc3Cl)c(C(=O)NOCCO)cc21 [SELUMETINIB] = > 30 µM (inactive)
CNC(=O)c1cc(COc2nnc(Nc3ccc(Cl)cc3)c3ccoc23)ccn1 [TELATINIB] = > 30 µM (inactive)
N#CCNC(=O)c1ccc(-c2ccnc(Nc3ccc(N4CCOCC4)cc3)n2)cc1 [MOMELOTINIB] = > 30 µM (inactive)
CC1(C)CNc2cc(NC(=O)c3cccnc3NCc3ccncc3)ccc21 [MOTESANIB] = > 30 µM (inactive)
COc1ccc(-c2ccc3ncc4c(c3c2)n(-c2ccc(N3CCNCC3)c(C(F)(F)F)c2)c(=O)n4C)cn1 [BGT-226 FREE BASE] = > 30 µM (inactive)

State its Kd on Electron transfer flavoprotein subunit beta (Homo sapiens): CNC(=O)c1cccc(-c2ccc3c(N4CCOC[C@@H]4C)nc(N4CCOC[C@@H]4C)nc3n2)c1 [VISTUSERTIB]
> 30 µM (inactive)

State its Kd on Electron transfer flavoprotein subunit beta (Homo sapiens): COc1cccc2cc(-c3nc([C@H]4CC[C@H](C(=O)O)CC4)n4ncnc(N)c34)[nH]c12 [OSI-027]
> 30 µM (inactive)

State its Kd on Electron transfer flavoprotein subunit beta (Homo sapiens): Cc1c(Cn2c(C)nc3c(C(=O)O)cc(N4CCOCC4)cc32)cccc1C(F)(F)F [GSK-2636771]
> 30 µM (inactive)

State its Kd on Electron transfer flavoprotein subunit beta (Homo sapiens): COc1cc2c(N3CCN(C(=O)Nc4ccc(OC(C)C)cc4)CC3)ncnc2cc1OCCCN1CCCCC1 [TANDUTINIB]
> 30 µM (inactive)
